Give IL-8, cross-linked by F(ab')2 fragment [abs. corr.] for every item shown.
Target: T1, CD27 expressed on the cell surface (HT1080_CD27 cells) (human, UniProt P26842 20-260); further: test concentration or dose not given here
T1 sequence (looked up): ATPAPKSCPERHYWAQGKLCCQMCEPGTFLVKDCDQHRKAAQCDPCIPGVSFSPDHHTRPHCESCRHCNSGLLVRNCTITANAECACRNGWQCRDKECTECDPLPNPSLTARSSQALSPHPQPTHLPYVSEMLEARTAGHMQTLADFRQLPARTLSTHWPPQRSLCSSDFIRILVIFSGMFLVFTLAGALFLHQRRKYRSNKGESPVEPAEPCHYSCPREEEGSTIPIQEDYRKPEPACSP
Test: cell-based or functional assay
Give bare numbers, in abs. corr..

Example binders with recorded IL-8, cross-linked by F(ab')2 fragment [abs. corr.]:
- binder: "P018.S.10.A.G05 (antibody, V domains shown, V regions on human Ig constant parts; also called AB27_183) VH: QSVEESGGRLVTPGTPLTLTCTVSGFSLNNAHMCWVRQAPGKGLEWIGIIGASGSTYYASWAKGRFTISKTSTTVDLKMTSLTTEDTATYFCGRTDVGYTTANLWGQGTLVTVSS VL: DVVMTQTPASVSAAVGGTVTIKCQASQTISSYLSWYQQKPGQPPKRLIYSASTLASGVSSRFKGSGSGTQFTLTISDLESADAATYYCQAYDTTSGTDLWAFGGGTEVVVK"
  test-value: 1.25
- binder: "P018.S.02.A.E06 (antibody, V domains shown, V regions on human Ig constant parts; also called AB27_34) VH: QSLEESGGRLVTPGTPLTLTCTASGFSLSNYSMNWVRQAPGKGLEWIGIINMYGSTYYATWAKGRFTISKTSTTVDLKMTSLTTEDTATYFCARDAGGSTVPWYFDLWGPGTLVTVSS VL: AYDMTQTPASVSEPVGGTVTIKCQASESISDYLAWYQQKPGQRPKLLIYDASKLASGVPSRFSGSGSGTEFTLTISGVGSADAATYYCQQGYADSNVDNVFGGGTEVVVK"
  test-value: 1.29
- binder: "P018.S.04.A.D04 (antibody, V domains shown, V regions on human Ig constant parts; also called AB27_72) VH: QSVEESGGRLVTPGTPLTLTCTVSGIDLSSYSMTWVRQAPGKGLEWIGFINTGGRGYYASWAKGRFTISKTSTTVDLKITSPTTEDTATYFCARDAGSSRGYYRDLWGQGTLVTVSS VL: AYDMTQTPASVSAAVGGTVTIKCQASEDIYSLLAWYQQKPGQPPKLLIYDASDLASGVPSRFSGSGSGTDYTLTISGVESADAATYYCQQGYTTSTTVDNIFGGGTEVVVK"
  test-value: 1.32

Could I get IL-8, cross-linked by F(ab')2 fragment [abs. corr.] for every one of these entries?
1. P018.S.04.A.B05 (antibody, V domains shown, V regions on human Ig constant parts; also called AB27_68) VH: QSVEESGGRLVTPGTPLTLTCTASGFTLSSFYMSWVRQAPGKGLEWIGFIHGHGNTYYASWAKGRFTISKTSTTVDLKIASPTTEDTATYFCARGGHPNMDLWGQGTLVTISS VL: DIVMTQTPSSVEAAVGGTVTIKCQASQNINNYLAWYQQKPGQPPKLLIYYASTLASGVSSRFKGSGSGTEFTLTISDLESDDAATYYCQCSYYDASIFGAFGGGTEVVVR
2. P018.S.01.A.G03 (antibody, V domains shown, V regions on human Ig constant parts; also called AB27_22) VH: QSVEESGGRLVTPGTPLTLTCTVSGFSLSSYSMIWVRQAPGKGLEWIGIVYASGSTNYASWAKGRFTISKTSTTVDLKITSPTTEDTATYFCARGDVLYAFDPWGPGTLVTVSS VL: AFELTQTPSSVSAAVGGTVTIKCQASENIYSYLAWYQQKPGQPPKRLIYYASNLASGVSSRFKGSGSGTEFTLTISDLESADAATYYCQYTYSTSPGYIFGGGTEVVVK

Result:
1.08
1.21
